Task for the reader: assign each of the following binders its reported pIC50.
Molecular target: T1, recombinant human HGF (hepatocyte growth factor) (human, UniProt P14210 32-728)
T1 construct: Covalently immobilized on the chip for SPR; also called scatter factor
T1 sequence (P14210 32-728 limits assumed): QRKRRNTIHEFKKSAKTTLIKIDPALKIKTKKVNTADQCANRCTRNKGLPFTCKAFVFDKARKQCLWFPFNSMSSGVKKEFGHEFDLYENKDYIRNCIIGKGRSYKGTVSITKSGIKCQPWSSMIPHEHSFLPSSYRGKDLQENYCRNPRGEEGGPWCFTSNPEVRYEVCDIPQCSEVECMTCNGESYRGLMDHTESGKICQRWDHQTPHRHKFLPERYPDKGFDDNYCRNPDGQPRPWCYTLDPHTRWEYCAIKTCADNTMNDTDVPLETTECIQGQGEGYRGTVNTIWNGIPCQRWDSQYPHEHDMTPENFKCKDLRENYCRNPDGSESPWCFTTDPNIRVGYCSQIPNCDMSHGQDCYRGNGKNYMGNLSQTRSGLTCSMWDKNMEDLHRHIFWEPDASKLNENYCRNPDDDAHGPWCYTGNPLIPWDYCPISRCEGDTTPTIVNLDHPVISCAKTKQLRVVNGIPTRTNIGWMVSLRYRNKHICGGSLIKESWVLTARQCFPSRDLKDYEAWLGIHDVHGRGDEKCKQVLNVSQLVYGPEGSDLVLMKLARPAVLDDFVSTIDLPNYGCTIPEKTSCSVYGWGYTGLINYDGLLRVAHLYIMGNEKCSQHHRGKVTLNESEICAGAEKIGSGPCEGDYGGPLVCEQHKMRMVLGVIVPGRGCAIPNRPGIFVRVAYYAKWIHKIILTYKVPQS
Test: receptor competition ELISA: DARPin premixed with human HGF, binding of HGF to coated c-Met Fc chimera detected with anti-HGF antibody
Numbers only, as −log10 of the molar value.

DARPin #37 (designed binder) MRGSHHHHHHGSDLGKKLLEAARAGQDDEVRILMANGADVNATDLTGFTPLHLAAYYGHLEIVEVLLKYGADVNADDRYGLTPLHLAANTGHLEIVEVLLKNGADVNASDSVGTTLLHLAAYIGHPEIVEVLLKYGADVNAQDKFGKTAFDISIDNGNEDLAEILQKLN	8.88
DARPin #48 (designed binder) MRGSHHHHHHGSDLGKKLLEAARAGQDDEVRILMANGADVNAKDRFGDTPLHLAADIGHLKIVEVLLKHGADVNAEDWFGNTPLHLAASMGHLEIVEVLLKYGADVNAMDDYGNTPLHLAANTGHLEIVEVLLKHGADVNAQDKFGKTAFDISIDNGNEDLAEILQKLN	9.04

Now examine the next entry.
Which value of pIC50 has been reported for DARPin #43 (designed binder) MRGSHHHHHHGSDLGKKLLEAARAGQDDEVRILMANGADVNAKYEDGLTPLHLAAFYGHLEIVEVLLKHGADVNATDAWGHTPLHLAAYYGHLEIVEVLLKYGADVNTHDKEGMTALHLAALTGHLEIVEVLLKNGADVNAQDKFGKTAFDISIDNGNEDLAEILQKLN in the records?
8.87
